# method summary: drug combination growth inhibition, ovarian cancer – cell-based, oncology-focused library, rucaparib conditional, profiling panel (AID 1508598)
# assay setup: patient-derived ovarian cancer cells, CellTiter-Glo viability, 144 h; at 0.0781 µM; OCI-C5x cells; without rucaparib; hits give low values
Would you mind telling me the reported viability of each entry?
Respond numerically; units are % and should not be typed.

Query: Requested field: viability. Item: COc1cc([C@H]2c3cc4c(cc3[C@@H](O[C@@H]3O[C@@H]5CO[C@@H](C)O[C@H]5[C@H](O)[C@@H]3O)[C@H]3COC(=O)[C@H]23)OCO4)cc(OC)c1O
Response: 95.6

Query: Can you look up the measured viability of CO[C@H]1C[C@H]2CC[C@@H](C)[C@@](O)(O2)C(=O)C(=O)N2CCCC[C@H]2C(=O)O[C@H]([C@H](C)C[C@@H]2CC[C@H](OC(=O)C(C)(CO)CO)[C@H](OC)C2)CC(=O)[C@H](C)/C=C(\C)[C@@H](O)[C@@H](OC)C(=O)[C@H](C)C[C@H](C)/C=C/C=C/C=C/1C for me?
Response: 84.7

Query: viability for c1ccc(Cn2c(-c3ccc(OC[C@H](C4CCNCC4)n4c(-c5ccccc5)nc5ccccc54)cc3)nc3ccccc32)cc1 ?
Response: 117

Query: Entry under review: Cc1[nH]c(C=C2C(=O)Nc3ccc(S(=O)(=O)Cc4c(Cl)cccc4Cl)cc32)c(C)c1C(=O)N1CCC[C@@H]1CN1CCCC1 . Reported viability?
Response: 113

Query: // query viability value for entry Cc1cc(C)c(S(=O)(=O)n2cc(C)cc2C)c(C)c1
Response: 102

Query: Which value of viability has been reported for CCOc1ccc(Cc2cc([C@@H]3O[C@H](CO)[C@@H](O)[C@H](O)[C@@H]3O)ccc2Cl)cc1 in the records?
Response: 108

Query: Consider the compound shown here: CCCc1ccc(OCC(=O)N(Cc2nc(-c3cccnc3)no2)C(C)C)cc1 What is its recorded viability?
Response: 114

Query: What value of viability has been recorded for this entry: CCc1c2c(nc3ccc(OC(=O)N4CCC(N5CCCCC5)CC4)cc13)-c1cc3c(c(=O)n1C2)COC(=O)[C@@]3(O)CC
Response: 106

Query: Tell me the measured viability of COc1cccc2c1C(=O)c1c(O)c3c(c(O)c1C2=O)C[C@@](O)(C(=O)CO)C[C@H]3O[C@H]1C[C@H](N)[C@H](O)[C@H](C)O1 , please.
Response: 103

Query: For the compound shown here, CO[C@H]1C[C@H]2CC[C@@H](C)[C@@](O)(O2)C(=O)C(=O)N2CCCC[C@H]2C(=O)O[C@H]([C@H](C)C[C@@H]2CC[C@H](OP(C)(C)=O)[C@H](OC)C2)CC(=O)[C@H](C)/C=C(\C)[C@@H](O)[C@@H](OC)C(=O)[C@H](C)C[C@H](C)/C=C/C=C/C=C/1C , give the reported viability.
Response: 96.7

Query: Requested read-out: viability. Entry: COc1cc(C(=O)NC2CCN(C)CC2)ccc1Nc1ncc2c(n1)N(C1CCCC1)CC(F)(F)C(=O)N2C
Response: 42.6

Query: Report viability for CCOC(=O)c1cnc2ccc(-c3cncc(NS(=O)(=O)c4ccccc4)c3)cn12 please.
Response: 74.3

Query: Look up viability: CO[C@H]1C[C@@H]2CC[C@@H](C)[C@@](O)(O2)C(=O)C(=O)N2CCCC[C@H]2C(=O)O[C@H]([C@@H](C)C[C@@H]2CC[C@@H](OCCO)[C@H](OC)C2)CC(=O)[C@H](C)/C=C(\C)[C@H](O)[C@@H](OC)C(=O)[C@H](C)C[C@H](C)/C=C/C=C/C=C/1C
Response: 119

Query: Fill in the blank: the reported viability of O=C(/C=C/c1ccc2ccccc2n1)c1ccncc1 is ____.
Response: 116

Query: What value of measured viability is listed for OCCn1cc(-c2ccc3c(c2)CCC3=NO)c(-c2ccncc2)n1 ?
Response: 122

Query: Item under review: CC(C)NCCCn1c(Sc2cc3c(cc2I)OCO3)nc2c(N)ncnc21 . Reported viability?
Response: 127

Query: Give its viability value. Item: CC(C)CC(CC(=O)NO)C(=O)N[C@@H](Cc1ccc2ccccc2c1)C(=O)N[C@@H](C)C(=O)NCCN (some centres undefined)
Response: 102

Query: Look up viability: COc1cccc(-c2cc(F)ccc2[C@H]2Cc3nc(N)nc(C)c3C(=O)N2)n1
Response: 13.1

Query: What value of viability has been reported for the following compound? CN(C)CCSSCCNC(=O)C1CCN(C(=O)CSc2ccc(Cl)cc2)CC1
Response: 112

Query: Need viability of CC(C)(C(=O)NCC(F)(F)C(F)(F)F)C(=O)N[C@H]1C(=O)Nc2ccccc2-c2ccccc21 , thanks.
Response: 119

Query: Please look up its viability: COC1=C2C[C@H](C)C[C@@H](OC)[C@H](O)[C@H](C)/C=C(\C)[C@H](OC(N)=O)[C@@H](OC)/C=C/C=C(\C)C(=O)NC(=CC1=O)C2=O
Response: 9.53

Query: Item under review: CC(C)(C)C(=O)Nc1ccc2c(c1)C(=O)C(=O)c1ccccc1-2 . Reported viability?
Response: 113

Query: Which measured viability value corresponds to Nc1nc(F)nc2c1ncn2[C@H]1O[C@H](CO)[C@@H](O)[C@@H]1O ?
Response: 111

Query: Data request, read-out viability, for C[C@]12CCC(=O)C=C1CC[C@@H]1[C@H]2[C@H](O)C[C@@]2(C)[C@H]1CC[C@@]2(O)C(=O)CO
Response: 132

Query: Name the recorded viability for COc1cccc2c1C(=O)c1c(O)c3c(c(O)c1C2=O)C[C@@](O)(C(=O)CO)C[C@H]3O[C@H]1C[C@H](N)[C@@H](O)[C@H](C)O1 .
Response: 83.9

Query: Which viability value belongs to CC(=O)[C@]1(O)Cc2c(O)c3c(c(O)c2[C@H](O[C@H]2C[C@H](N)[C@H](O)[C@H](C)O2)C1)C(=O)c1ccccc1C3=O ?
Response: 7.56

Query: Using the record for Cc1cc2c(C(=O)NC[C@H](C)c3ccccc3)c(O)c(O)cc2c(O)c1-c1c(C)cc2c(C(=O)NC[C@H](C)c3ccccc3)c(O)c(O)cc2c1O , report its viability.
Response: 110

Query: Which viability value belongs to CC(=O)OCC(=O)[C@]1(O)[C@H](C)C[C@H]2[C@@H]3CCC4=CC(=O)C=C[C@]4(C)[C@]3(F)[C@H](O)C[C@@]21C ?
Response: 112

Query: Given the entry O=C(O)c1cc(I)ccc1NC(=O)[C@H](Cc1ccccc1)NCc1ccccc1 , report its measured viability.
Response: 116
